Target: human JAK3 catalytic kinase (JH1) domain (Homo sapiens (Human), UniProt P52333)
Sequence (P52333 822-1111): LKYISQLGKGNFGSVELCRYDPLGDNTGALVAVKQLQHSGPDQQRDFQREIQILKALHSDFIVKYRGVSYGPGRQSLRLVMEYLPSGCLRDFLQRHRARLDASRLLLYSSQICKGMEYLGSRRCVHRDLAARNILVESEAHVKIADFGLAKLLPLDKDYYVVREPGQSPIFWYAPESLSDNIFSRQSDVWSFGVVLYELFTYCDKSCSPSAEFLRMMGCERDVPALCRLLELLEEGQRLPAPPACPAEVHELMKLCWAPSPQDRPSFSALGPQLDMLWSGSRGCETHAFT
Assay: ADP-Glo Kinase Assay, recombinant JAK3 catalytic kinase (JH1) domain
Format: biochemical
Conditions: recombinant JH1 domain 0.3 nM, 4 μM ATP, JAK3-974 peptide, mean, read-out: JAK3 biochem IC50 (nM) Mean
REPORTED_METRIC: log10 of IC50 (log10 of the value in nM)
Use the decimal logarithm of IC50 (nM).

Here is how some compounds turned out for log10 of IC50.
CC1C(C(=O)N2C3CCC2CN(c2ncnn4cc(-c5cnn(C(F)F)c5)cc24)C3)C1(F)F (stereo not drawn)    3.57
Cn1cc(-c2cc3c(N4CC5CCC(C4)N5C(=O)[C@@H]4C[C@H]4F)ncnn3c2)cn1 [Example 2]    2.91
O=C([C@@H]1CC1(F)F)N1C2CCC1CN(c1ccnn3cc(C4CC4)cc13)C2    4.00
Cn1cc(-c2cc3c(N4CC5CCC(C4)N5C(=O)C4CC4(F)F)ncnn3c2)cn1 (stereo not drawn)    3.66

Exam item: Notebook: pull reported log10 of IC50 for human JAK3 catalytic kinase (JH1) domain (Homo sapiens (Human), UniProt P52333), entry N#Cc1cc(-c2nc3c(N4CC5CCC(C4)N5C(=O)[C@@H]4C[C@H]4F)ccnc3[nH]2)ccn1
Marked response: 2.85

Exam item: Same for O=C(C1CC1)N1C2CCC1CN(c1ncnn3cc(-c4ccccc4)cc13)C2
Marked response: 3.67

Exam item: Same for O=C([C@@H]1C[C@H]1F)N1C2CCC1CN(c1ccnc3[nH]c(N4CCOCC4)nc13)C2
Marked response: 3.63

Exam item: Same for COc1cc(-c2cc3c(N4CC5CCC(C4)N5C(=O)[C@@H]4C[C@H]4F)ccnn3c2)ccn1
Marked response: 2.78

Exam item: Same for O=C([C@@H]1C[C@H]1F)N1C2CCC1CN(c1ccnn3cc(-c4ccnc(OC(F)F)c4)cc13)C2
Marked response: 2.99

---

Target: human JAK1 catalytic kinase (JH1) domain (Homo sapiens (Human))
Sequence (P23458 875-1153): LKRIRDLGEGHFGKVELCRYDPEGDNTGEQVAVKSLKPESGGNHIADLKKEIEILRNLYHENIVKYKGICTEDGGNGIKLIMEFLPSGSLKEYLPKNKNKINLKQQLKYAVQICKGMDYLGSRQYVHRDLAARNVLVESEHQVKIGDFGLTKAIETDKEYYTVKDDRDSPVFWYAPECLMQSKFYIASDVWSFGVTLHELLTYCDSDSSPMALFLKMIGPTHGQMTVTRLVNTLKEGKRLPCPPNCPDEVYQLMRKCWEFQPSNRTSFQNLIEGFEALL
Assay: ADP-Glo Kinase Assay, recombinant JAK1 catalytic kinase (JH1) domain
Format: biochemical
Conditions: recombinant JH1 domain 4 nM, 35 μM ATP, JAK3-342 peptide, mean, read-out: JAK1 biochem IC50 (nM) Mean
The reader will find reported IC50 values listed item by item below.
Give the number; nM is assumed, so skip it.

Exam item: Using the record for O=C([C@H]1C[C@@H]1CO)N1C2CCC1CN(c1ncnn3cc(-c4cnn(C(F)F)c4)cc13)C2 (single isomer, unassigned) [Example 39] , report its IC50.
Marked response: 2130

Exam item: Same for O=C([C@@H]1C[C@H]1F)N1C2CCC1CN(c1ncnn3cc(-c4cnn(C(F)F)c4)cc13)C2 [Example 76]
Marked response: 574

Exam item: Same for Cc1cc(-c2cc3c(N4CC5CCC(C4)N5C(=O)[C@@H]4C[C@H]4F)ccnn3c2)ccn1 [Example 100]
Marked response: 26

---

Target: human JAK3 catalytic kinase (JH1) domain (Homo sapiens (Human), UniProt P52333)
Experiment: ADP-Glo Kinase Assay, recombinant JAK3 catalytic kinase (JH1) domain
Format: biochemical
Settings: recombinant JH1 domain 0.3 nM, 4 μM ATP, JAK3-974 peptide, mean, read-out: JAK3 biochem IC50 (nM) Mean
# label = class 1 if IC50 < 3000 nM else class 0

O=C(C1CCC1F)N1C2CCC1CN(c1ncnn3cc(-c4cnn(C(F)F)c4)cc13)C2 (stereo not drawn)    class 0
Cn1cc(-c2nc3c(N4CC5CCC(C4)N5C(=O)[C@@H]4C[C@H]4F)ccnc3[nH]2)cn1    class 1
Cc1cc(-c2cc3c(N4CC5CCC(C4)N5C(=O)[C@@H]4C[C@H]4F)ccnn3c2)on1    class 1

Exam item: Field: below-cutoff. Rule: recorded IC50 strictly less than 3000 nM. Subject: Cn1cc(-c2cc3c(N4CC5CCC(C4)N5C(=O)[C@H]4C[C@@H]4F)ncnn3c2)cn1 (single isomer, unassigned) [Example 81]
Marked response: class 0

Exam item: Same for O=C(CC(F)(F)F)N1C2CCC1CN(c1ncnn3cc(-c4cnn(C(F)F)c4)cc13)C2
Marked response: class 0

Exam item: Same for O=C([C@@H]1C[C@H]1F)N1C2CCC1CN(c1ccnn3cc(-c4ccc(C(F)F)nc4)cc13)C2
Marked response: class 1

Exam item: Same for O=C([C@@H]1C[C@H]1F)N1C2CCC1CN(c1ccnn3cc([C@@H]4CC4(F)F)cc13)C2 (single isomer, unassigned)
Marked response: class 0

Exam item: Same for O=C([C@@H]1C[C@H]1F)N1C2CCC1CN(c1ccnc3[nH]c(C4CCC4)nc13)C2
Marked response: class 0

Exam item: Same for N#C[C@@H]1C[C@H]1C(=O)N1C2CCC1CN(c1ncnn3cc(-c4cnn(C(F)F)c4)cc13)C2 (single isomer, unassigned)
Marked response: class 0

Exam item: Same for CNc1cncc(-c2cc3c(N4CC5CCC(C4)N5C(=O)[C@@H]4C[C@H]4F)ccnn3c2)n1
Marked response: class 0

Exam item: Same for O=C([C@@H]1C[C@H]1F)N1C2CCC1CN(c1ccnn3cc(-c4cnn(C(F)(F)F)c4)cc13)C2
Marked response: class 1

Exam item: Same for O=C(C1CC1)N1C2CCC1CN(c1ncnn3cc(-c4ccncc4)cc13)C2
Marked response: class 0

Exam item: Same for O=C([C@@H]1C[C@H]1F)N1C2CCC1CN(c1ccnn3cc(-c4cnn(C(F)F)c4)cc13)C2
Marked response: class 1

Exam item: Same for COc1ccc(-c2cc3c(N4CC5CCC(C4)N5C(=O)[C@@H]4C[C@H]4F)ncnc3[nH]2)cn1
Marked response: class 1

Value source: patent US20240360157A1
